STUDY TARGET: mPGES-1 (Homo sapiens, UniProt O14684)
Sequence (O14684 1-152): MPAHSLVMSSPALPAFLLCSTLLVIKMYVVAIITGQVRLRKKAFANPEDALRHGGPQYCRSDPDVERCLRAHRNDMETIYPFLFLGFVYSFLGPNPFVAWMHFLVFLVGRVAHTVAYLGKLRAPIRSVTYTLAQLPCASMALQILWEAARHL
ASSAY COMMENT: mPGES-1 enzyme activity assay (PGE2 enzyme immunoassay), human enzyme
Type: biochemical
Design: made in house; host or cells: FreeStyle 293-F cells, crude microsomal preparation
STATED CONDITIONS: recombinant microsomal enzyme; means ± SD, triplicate; read-out: IC50 against mPGES-1, Human enzyme
Cut-off 90 nM on IC50: below means 1, at or above means 0.

O=C(O)CN1C(=O)S/C(=C2\C(=O)N(CC3CCCCC3)c3ccc(-c4ccccc4)cc32)C1=O [II-18]    0
CCCCCCCCCCOc1ccc(/C=C(\C#N)C(=O)OCC)cc1OC [Compound V-26]    0
CCCCCCCOc1ccc(/C=C(\C#N)C(=O)OCC)cc1[N+](=O)[O-] [Compound V-02]    0
CCCCCCCCCCOc1ccc(-c2nn(-c3ccc(Cl)cc3)cc2C=C2C(=O)NC(=S)NC2=O)cc1 [VI-17]    0
CCCCCCOc1ccc(-c2nn(-c3ccc(Cl)cc3)cc2/C=C2\SC(=O)NC2=O)cc1 [VII-06]    0
CCCCCOc1ccc(/C=C(\C#N)C(=O)O)cc1OC [Compound V-44]    0
O=C1NC(=O)C(=Cc2cc(Cl)ccc2OCCCCC2CCCCC2)C(=O)N1 [Compound I-13]    1
CCOc1ccc(-c2nn(-c3ccc(Cl)cc3)cc2C=C2C(=O)NC(=S)NC2=O)cc1 [VI-10]    0
CCCCOc1ccc(-c2nn(-c3ccc(Cl)cc3)cc2C=C2C(=O)NC(=S)NC2=O)cc1 [VI-12]    1
O=C(O)CN1C(=O)S/C(=C2\C(=O)N(CCCCC3CCCCC3)c3ccc(-c4ccccc4)cc32)C1=O [II-26]    1
O=C(O)CN1C(=O)S/C(=C2\C(=O)N(CCc3ccccc3)c3ccccc32)C1=O [II-03]    0
CCCCCCCCCOc1ccc(/C=C(\C#N)C(=O)OCC)cc1OC [Compound V-29]    0
CCCCCCCOc1c(Br)cc(C=C(C#N)C#N)cc1OC [Compound V-15]    1

This collection of values is drawn from patent US12030877B2.
